The following binders are listed with their measured P.E. binding ELISA OD values.
Target: T1, mouse IL-2Rβ (mouse) (UniProt P16297)
T1 sequence (looked up): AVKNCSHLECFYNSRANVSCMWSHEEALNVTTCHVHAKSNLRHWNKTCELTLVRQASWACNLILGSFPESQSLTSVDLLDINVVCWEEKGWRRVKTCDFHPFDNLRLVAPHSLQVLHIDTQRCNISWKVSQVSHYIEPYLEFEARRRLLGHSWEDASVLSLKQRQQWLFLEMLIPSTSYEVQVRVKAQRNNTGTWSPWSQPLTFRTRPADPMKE
Experiment: P.E. ELISA, coated protein

binder	P.E. binding ELISA OD, OD450 nm
FJ1427_P035MP02D06 (VHH) VHH: EVQLVESGGGLVQTGGSLRLSCAASGSQFINDVMGWYRQVPGKQRELVADMDDTGSTKYADSVKGRFTILRDSVKNTAYLQMSNLKPEDTGVYYCKAGLWIKGRHSDYWGQGTQVTVSS	0.047
FJ1427_P035MP02F09 (VHH) VHH: EVQLVESGGGLVQAGGSLRLSCAASGDVFVRYTMAWFRQAPGKEREFVASVTDSGRTTDYVDSVKGRFTVSRDNAKNTVYLQMNNLKPEDTAVYYCAANTDYFQIRSLEFNTWGQGTQVTVSS	0.051
FJ1427_P035MP02H08 (VHH) VHH: EVQLVESGGGLVQAGDSLRISCAASGRIFSNYAMGWFRQAPGKETEFVAGITHLTSTTHYADSVKGRFTISRDNAKNTMHLQMNNLKPEDTALYYCAADRNIKITADWSYWGQGTQVTVAS	0.049
FJ1427_P035MP02C02 (VHH) VHH: QVQLVESGGGLVQPGGSLRLSCAASGSRFVSDFMGWYRQVPGKQRELVADMADGGSARYGDSVKGRFTILRDNMNSTAFLQMSSLKPEDTGVYYCKAGLWIAGRHFDYWGQGTQVTVSS	0.048
FJ1427_P035MP02A05 (VHH) VHH: EVQLVESGGGLVQTGGSLRLSCAASGSQFINDVMGWYRQVPGKQRELVADMDDTGSTKYADSVKGRFTILRDSVKNTAYLQMSNLKPEDTGVYYCKAGLWIKGRHSDYWGQGTQVTVSS	0.047
FJ1427_P035MP02C10 (VHH) VHH: QVQLVESGGGLVQAGGSLRLACALSGDVFVRYTMAWFRQAPGKEREFVASVTDSGRTTDYVASVQGRFTVSRDNNKNTVYLQMNSLKPEDTAVYYCAANTDYFQIRSLDRNTWGQGTQVTVSS	0.05
FJ1427 P035MP02F02 (VHH) VHH: EVQLVESGGGLVQAGGSLRLACALSGDVFVRYTMAWFRQAPGKEREFVASVTDSGRTTDYVASVQGRFTVSRDNNKNTVYLQMNSLKPEDTAVYYCAANTDYFQIRSLDRNTWGQGTQVTVSS	0.052
FJ1427 P035MP02C01 (VHH) VHH: QVQLVESGGGLVQPGGSLGLSCAASGFTFDNYAMSWVRQAPGKGLEWVSSITGAGRGTHYADSVKGRFTISRDNAKNTLYLQMNSLKPEDTAVYYCAKYSSSTYYPPTPARGTDYRGPGTQVTVSS	0.047
